Target: T1, His-tagged human CD38 (ACRO Biosystems cat #CD8-H5224) (human, UniProt P28907 43-300)
T1 construct: bought recombinant protein with His tag
Test: ELISA, coated His-CD38
Examples of binders with documented ELISA 1 ug/ml follow.
Could you respond with only the numeric value?

// below: answered binders
Reported ELISA 1 ug/ml for 40596p1.G10 (scFv, V domains shown, tested as scFv-Fc supernatant) VH: EVQLLESGGGLVQPGGSLRLSCAAPGFDFSKNAMSWVRQAPGKGLEYVAGSGWSGSFIFYADSVKGRFTVSRDNSENTLYLQMSSLRAEDTAVYYCAKNPGFGEMDVWGQGTTVTVSS VL: EIVLTQSPGSLFLSPGERATLTCRASQTIGSNLAWYQQKFGQAPRLLIYGASTRAADIPDRFSGSGSGTEFTLTISSLQSEDFAVYYCQQYNSWPPLTFGGGTKVEIK was 1.84

Lab book: ELISA 1 ug/ml of 40769p1.2.F9 (scFv, V domains shown, tested as scFv-Fc supernatant) VH: EVQLLESGGDLVQPGGSLRLSCGASGFTFSDHYMSWVRQAPGKGLEWVADISARGSNTWYADSVKGRFTISRDNSENTLYLQMNSLRAEDTAVYYCAKNWNYNYGMDVWGQGTTVTVSS VL: QSVLTQAPSASGTPGQRVTISCSGSSIQNNYVSWYQQLPGTAPKLLIYRNFERPSGVPDRFSASKSGTSASLAISGLQSGDEADYYCASWDDSLNWVFGGGTKLTVL noted as 1.47

Turning now to a further binder:
The binder listed as 40617p1.2.H8 (scFv, V domains shown, tested as scFv-Fc supernatant) VH: EVQLLESGGGLVQPGGSLRLSCAASGFTFSSYWMTWVRQAPGKGLEWVSAISSYGGNYMYYADSVKGRFTISRDNSKDTLYLQMNSLRAEDTAVYYCAKDWDDGMDVWGQGTTVTVSS VL: EIVMTQSPATLSVSPGDRATLSCRASQSVNSKLAWYQQKPGQAPRLLIYAASSRATGIPDRFSGSGSGTDFTLTISRLEPEDFAVYYCQQYYDLPPYSFGGGTKVEIK shows ELISA 1 ug/ml equal to 1.77
